Test: Reduction of methanethiol (MeSH) in saliva, headspace GC
Conditions: after 2½ h conditioning in pooled saliva; compound 500 μM; MeSH 200 μM
Structures can show the parent of a compound that is named as a salt.
reportedMetric: Reduction of MeSH (%)
Respond with the bare value in %.

// solved cases for Reduction of MeSH (%) follow
compound: CC1CCC(C(C)C)C(OC(=O)/C=C/C(=O)OCC(O)CO)C1 (centres unmarked)
u: %
reportedResult: 40.5
--
compound: CCOC(=O)/C=C/C(=O)Oc1c(C)occc1=O
u: %
reportedResult: 32.5
--
compound: CCOC(=O)/C=C/C(=O)Oc1ccc(C=O)cc1OCC [Compound 3, 2-Ethoxy-4-formylphenyl ethyl fumarate]
u: %
reportedResult: 73.3
--
compound: CCOC(=O)/C=C/C(=O)Oc1ccccc1C(=O)OC
u: %
reportedResult: 74.3

Entry CC1CCC(C(C)C)C(OC(=O)/C=C/C(=O)OCC(O)C(O)C(O)C(O)CO)C1 (centres unmarked) : reported Reduction of MeSH (%) = ?
75.1

----------
Assay: Reduction of allyl mercaptan, monobromobimane fluorescence
Conditions: test concentration 500 μM; 200 μM allyl mercaptan-solution, pH 7; 15 min
Structures can show the parent of a compound that is named as a salt.
% reduction of allyl mercaptan values, listed per item
Form field: result (number plus unit)

// solved cases for % reduction of allyl mercaptan follow
compound: CCOC(=O)/C=C/C(=O)Oc1ccccc1C(=O)OC
% reduction of allyl mercaptan: 99.8%

compound: CC1CCC(C(C)C)C(OC(=O)/C=C/C(=O)OCC(O)CO)C1 (centres unmarked)
% reduction of allyl mercaptan: 68.8%

compound: CCOC(=O)/C=C/C(=O)Oc1ccc(C=O)cc1OCC [Compound 3, 2-Ethoxy-4-formylphenyl ethyl fumarate]
% reduction of allyl mercaptan: 100.0%

compound: CCOC(=O)/C=C/C(=O)Oc1c(C)occc1=O
% reduction of allyl mercaptan: 100.0%

Consider now this further compound.
Entry CC1CCC(C(C)C)C(OC(=O)/C=C/C(=O)OCC(O)C(O)C(O)C(O)CO)C1 (centres unmarked) : reported % reduction of allyl mercaptan = ?
64.4%
